Data provenance: paper PMC3676426

Test: clinical
Conditions: both, human, in vivo, po, 100 mg, CLR

STRUCTURE | QUANTITY UNIT | CL renal
N[C@@H](CC(=O)N1CCn2c(nnc2C(F)(F)F)C1)Cc1cc(F)c(F)cc1F | mL/min | 254

###

Experiment: clinical
Conditions: both, human, in vivo, 100 mg, Cmax

STRUCTURE | Cmax [ng/mL]
N[C@@H](CC(=O)N1CCn2c(nnc2C(F)(F)F)C1)Cc1cc(F)c(F)cc1F | 399

###

Experiment: clinical
Conditions: both, human, in vivo, po, 100 mg, Cmax
ATTRIBUTE MEASURED: Cmax (µg/mL)

STRUCTURE | QUANTITY UNIT | EXPERIMENTAL VALUE
N[C@@H](CC(=O)N1CCn2c(nnc2C(F)(F)F)C1)Cc1cc(F)c(F)cc1F | µg/mL | 0.454

###

Experiment: clinical
Conditions: both, human, in vivo, po, 100 mg, AUC0-24
ATTRIBUTE MEASURED: AUC(0-t) (ng·h/mL)

STRUCTURE | ATTRIBUTE MEASURED | EXPERIMENTAL VALUE
N[C@@H](CC(=O)N1CCn2c(nnc2C(F)(F)F)C1)Cc1cc(F)c(F)cc1F | AUC(0-t) | 3230

###

Experiment: clinical
Settings: both, human, in vivo, 100 mg, t1/2

MOLECULE | QUANTITY UNIT | half-life
N[C@@H](CC(=O)N1CCn2c(nnc2C(F)(F)F)C1)Cc1cc(F)c(F)cc1F [Sitagliptin, sitagliptin] | h | 7.4

###

Experiment: clinical
Settings: both, human, in vivo, 100 mg, AUC0-∞
ATTRIBUTE MEASURED: AUC(0-inf) (ng·h/mL)

STRUCTURE | QUANTITY UNIT | EXPERIMENTAL VALUE
N[C@@H](CC(=O)N1CCn2c(nnc2C(F)(F)F)C1)Cc1cc(F)c(F)cc1F | ng·h/mL | 3220

###

Experiment: clinical
Settings: both, human, in vivo, po, 100 mg, AUC0-∞
ATTRIBUTE MEASURED: AUC(0-inf) (ng·h/mL)

STRUCTURE | QUANTITY UNIT | EXPERIMENTAL VALUE
N[C@@H](CC(=O)N1CCn2c(nnc2C(F)(F)F)C1)Cc1cc(F)c(F)cc1F | ng·h/mL | 3640
